Please respond with reported IC50 for every item in the list.
- measured.on: Aromatase (Homo sapiens, UniProt P11511)
- Sequence (P11511 1-503): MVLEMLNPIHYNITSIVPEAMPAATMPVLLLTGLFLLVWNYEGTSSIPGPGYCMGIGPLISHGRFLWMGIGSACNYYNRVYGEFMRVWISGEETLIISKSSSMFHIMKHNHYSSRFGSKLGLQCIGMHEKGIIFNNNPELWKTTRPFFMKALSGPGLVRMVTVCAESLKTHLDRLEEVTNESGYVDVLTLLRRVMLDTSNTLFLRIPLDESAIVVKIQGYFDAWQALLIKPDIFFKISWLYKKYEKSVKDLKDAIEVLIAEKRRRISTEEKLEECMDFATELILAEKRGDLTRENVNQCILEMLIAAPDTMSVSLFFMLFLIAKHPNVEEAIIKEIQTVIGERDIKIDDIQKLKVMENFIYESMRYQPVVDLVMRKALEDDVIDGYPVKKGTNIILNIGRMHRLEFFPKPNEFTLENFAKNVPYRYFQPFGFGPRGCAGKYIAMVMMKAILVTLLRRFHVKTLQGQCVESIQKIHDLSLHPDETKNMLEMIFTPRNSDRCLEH
- assay.info: Aromatase activity in JEG3 choriocarcinoma cells (Protocol 6)
- assay.context: JEG3 cells

A selection of reference data follows.
smiles.data | measured.on | IC50
N#Cc1ccc(Cn2cncn2)cc1-c1ccc(OS(N)(=O)=O)cc1 | Aromatase (Homo sapiens, UniProt P11511) | < 1000 nM
N#Cc1ccc(-c2ccc3ccccc3c2)cc1Cn1cncn1 | Aromatase (Homo sapiens, UniProt P11511) | < 1000 nM
CC(C)(C#N)c1cc(Cn2cncn2)cc(-c2ccc3ccccc3c2)c1 | Aromatase (Homo sapiens, UniProt P11511) | < 1000 nM

Please report IC50 for every entry that follows.
1. N#Cc1ccc(-c2ccc(OCc3ccccc3)cc2)cc1Cn1cncn1
2. CC(C)(C#N)c1cc(Cn2cncn2)cc(-c2cccc(C(=O)c3ccccc3)c2)c1
3. NS(=O)(=O)Oc1cccc(-c2cccc(Cn3cncn3)c2)c1
4. Oc1ccc(-c2cccc(Cn3cncn3)c2)cc1

["< 10000 nM", "< 1000 nM", "< 1000 nM", "< 1000 nM"]

Please report IC50 for every entry that follows.
1. c1ccc(COc2ccc(-c3cccc(Cn4cncn4)c3)cc2)cc1
2. N#Cc1cc(Cn2cncn2)cc(-c2ccc(OS(N)(=O)=O)cc2)c1

["< 10000 nM", "< 1000 nM"]

* * *

Please respond with reported pIC50 for every item in the list.
- measured.on: UniProt:P08842
- Sequence (P08842 22-583): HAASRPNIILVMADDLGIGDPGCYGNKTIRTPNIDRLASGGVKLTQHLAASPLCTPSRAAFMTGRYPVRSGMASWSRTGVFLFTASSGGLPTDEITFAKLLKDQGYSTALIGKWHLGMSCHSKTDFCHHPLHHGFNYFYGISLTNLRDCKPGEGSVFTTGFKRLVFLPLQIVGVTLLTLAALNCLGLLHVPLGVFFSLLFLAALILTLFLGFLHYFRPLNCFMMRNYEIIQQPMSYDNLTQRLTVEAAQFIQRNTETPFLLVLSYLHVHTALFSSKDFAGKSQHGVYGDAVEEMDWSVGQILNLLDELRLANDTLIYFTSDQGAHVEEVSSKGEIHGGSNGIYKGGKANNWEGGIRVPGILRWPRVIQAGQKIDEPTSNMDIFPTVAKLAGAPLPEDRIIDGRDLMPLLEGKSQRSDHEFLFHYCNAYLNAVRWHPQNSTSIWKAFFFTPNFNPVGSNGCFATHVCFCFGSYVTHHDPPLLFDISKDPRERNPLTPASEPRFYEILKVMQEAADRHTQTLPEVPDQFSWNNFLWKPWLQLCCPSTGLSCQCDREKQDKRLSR
- assay.info: Inhibition of steroid sulphatase activity in intact JEG3 cells (Protocol 1)
- assay.context: JEG3 cells
pIC50: −log10 of the molar value.

smiles.data | pIC50
NS(=O)(=O)Oc1ccc(-c2cccc(Cn3cncn3)c2)cc1 | > 5.00
NS(=O)(=O)Oc1ccc(C#Cc2cccc(Cn3cncn3)c2)cc1Cl | > 6.00
N#Cc1cc(Cn2cncn2)ccc1-c1ccc(OS(N)(=O)=O)c(Cl)c1 | > 6.00
NS(=O)(=O)Oc1ccc(SCc2cccc(Cn3cncn3)c2)cc1Cl | > 6.00

Kindly review the next compound as well.
What value of pIC50 has been reported for the following compound? `NS(=O)(=O)Oc1cccc(-c2cccc(Cn3cncn3)c2)c1`
> 5.00

* * *

- measured.on: Aromatase (Homo sapiens)
- Construct: host or cells: JEG3 choriocarcinoma cells (intact monolayers)
- Sequence (P11511 1-503): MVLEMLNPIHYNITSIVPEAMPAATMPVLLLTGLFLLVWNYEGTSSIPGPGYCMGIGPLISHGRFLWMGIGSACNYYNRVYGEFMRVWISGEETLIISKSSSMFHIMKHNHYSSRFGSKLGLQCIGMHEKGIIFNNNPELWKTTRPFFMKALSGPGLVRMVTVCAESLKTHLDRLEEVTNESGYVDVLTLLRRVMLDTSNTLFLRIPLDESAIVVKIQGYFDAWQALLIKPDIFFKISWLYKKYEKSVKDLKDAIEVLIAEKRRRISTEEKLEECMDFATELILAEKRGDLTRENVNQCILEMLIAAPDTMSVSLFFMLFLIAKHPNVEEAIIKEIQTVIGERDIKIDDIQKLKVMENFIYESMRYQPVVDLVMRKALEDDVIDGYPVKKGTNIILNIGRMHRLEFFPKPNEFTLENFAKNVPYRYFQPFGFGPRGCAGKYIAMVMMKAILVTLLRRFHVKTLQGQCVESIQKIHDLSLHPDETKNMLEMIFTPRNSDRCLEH
- assay.info: Aromatase activity in JEG3 choriocarcinoma cells (Protocol 6)
- Format: cell-based
- assay.context: JEG3 cells
property.name: IC50

A selection of reference data follows.
compound | IC50
COc1ccc(-c2cccc(Cn3cncn3)c2)cc1 [compound 1452] | < 1 µM
Oc1cccc(-c2cccc(Cn3cncn3)c2)c1 [compound 1840] | < 1 µM
NS(=O)(=O)Oc1ccc(SCc2ccc(Cn3cncn3)cc2)cc1Cl [compound 1980] | < 1 µM
N#Cc1ccc(Cn2cncn2)cc1-c1ccc(Cl)c(O)c1 [Compound 25] | < 1 µM
CC(C)(C#N)c1cc(Cn2cncn2)cc(-c2ccc(OS(N)(=O)=O)c(Cl)c2)c1 [Compound 58] | < 1 µM

Please report IC50 for every entry that follows.
1. CC(C)(C#N)c1cc(Cn2cncn2)cc(-c2ccc(O)cc2)c1 [compound 1521]
2. N#Cc1ccc(-c2cccc(Cl)c2)cc1Cn1cncn1 [compound 1503]
3. COc1ccc2cc(-c3cccc(Cn4cncn4)c3)ccc2c1 [compound 1981]
4. N#Cc1ccc(Cn2cncn2)c(-c2ccccc2)c1 [Compound 51]
5. N#Cc1ccc(-c2ccccc2)cc1Cn1cncn1 [compound 1456]
6. c1ccc(-c2ccc(Cn3cncn3)cc2)cc1 [compound 1975]

< 1 µM
< 1 µM
< 1 µM
< 1 µM
< 1 µM
< 10 µM

Numbers sourced from patent US8093279B2.
